src = patent US20240174716A1

- assayExplanation: In vivo imaging system (IVIS) analysis of fluorescent dye-conjugated transporter peptides
- Set-up: species or system BALB/c mice
- conditionInfo: BALB/c, mouse, brain, intravenous; 10 mg/kg, tail vein injection; read-out: half-life of the fluorescence in the mouse brains (converted)
measuredAttribute: half-life

Challenge: If you can, please state the reported half-life value of CC[C@H](C)[C@H](NC(=O)[C@@H](N)CC(=O)O)C(=O)N[C@@H](CO)C(=O)N[C@H](C(=O)N[C@@H](CC(C)C)C(=O)N[C@@H](CCSC)C(=O)N[C@@H](CCCCN)C(=O)N[C@@H](CCC(=O)O)C(=O)N[C@@H](Cc1ccc(O)cc1)C(=O)N[C@@H](CCC(N)=O)C(=O)O)C(C)C [PT-034, DISVLMKEYQ] .
Response given: ~5 h
